Tested on: NCI-H2228 alectinib-DTP
method description: cell viability relative to vehicle (fraction of vehicle); NCI-H2228 is an ALK-positive lung cancer line and DTP means drug-tolerant persister; higher = less growth inhibition
measurement setup: 100 nM; treatment time 6 days
Whole data set: some 2,800 compounds, median “cell viability relative to vehicle” near 0.98, cut for the lowest 2% near 0.45. The list comes from a sample in which the lowest values are over-represented; it also holds close analogues and randomly drawn compounds.
// NB: equality with 1 counts as 0 (no); only cell viability strictly below is 1 (yes)

For this molecule, is cell viability lower than 1? "Cc1cc(N2C[C@@H](C)N[C@@H](C)C2)ncc1-c1ccc(-c2nc3c(ccn3C)c(=O)[nH]2)cc1"
1 (yes)

Input N#CCC(C1CCCC1)n1cc(-c2ncnc3[nH]ccc23)cn1 (stereo not given) ; condition: cell viability strictly below 1. Does it hold?
0 (no)

Item "CC(C)(NS(=O)(=O)c1ccc2c(Cl)cnc(N=C(N)N)c2c1)C(=O)O" : cell viability beneath 1, strictly?
0 (no)

Is the reported cell viability for "COc1cc2nccc(Oc3ccc(NC(=O)c4cn(C(C)C)c(=O)n(-c5ccc(F)cc5)c4=O)cc3F)c2cc1OC" strictly below 1?
1 (yes)
